Molecular target: Nuclear receptor subfamily 1 group I member 3 (Homo sapiens, UniProt Q14994)
Sequence (Q14994 whole entry, looked up): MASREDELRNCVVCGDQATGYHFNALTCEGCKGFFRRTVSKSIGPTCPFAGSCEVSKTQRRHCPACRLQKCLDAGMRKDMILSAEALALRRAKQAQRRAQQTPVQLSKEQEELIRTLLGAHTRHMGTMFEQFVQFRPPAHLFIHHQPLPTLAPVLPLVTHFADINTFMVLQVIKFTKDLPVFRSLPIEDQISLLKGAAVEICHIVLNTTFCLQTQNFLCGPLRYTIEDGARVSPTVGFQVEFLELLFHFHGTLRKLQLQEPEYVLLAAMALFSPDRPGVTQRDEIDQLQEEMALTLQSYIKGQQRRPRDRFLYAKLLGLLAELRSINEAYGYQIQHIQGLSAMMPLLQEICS
Test: Agonist activity at human CAR3 expressed in African green monkey COS-1 cells cotransfected with RXRalpha after 24 hrs by CYP2B6-luciferase reporter gene assay
Type: cell-based
Conditions: cos-1
In this section we review reported pEC50 values for a set of compounds.
pEC50 is a log-scale quantity: -log10 of the concentration expressed in molar.

Past entries and their recorded results:
>  <molecular_string>
COc1cccc(-c2nc(OC)c3ccccc3n2)c1

>  <pEC50>
5.31

$$$$
>  <molecular_string>
COc1cccc(-c2nc3ccccc3c(=S)[nH]2)c1

>  <pEC50>
5.21

$$$$

Now turn to the next compound.
Asked: // query pEC50 value for entry "COc1cccc(-c2nc(SC)c3ccccc3n2)c1"
Given back: 5.39
